Where do the numbers come from? From ChEMBL document CHEMBL2093137.

Would you kindly list IC50 for each of these compounds?
experiment: WHO-TDR: Cytotoxicity; type: toxicity, cell-based; details: human, MRC5 cells

Solved cases below.
* O=C(Nc1nc(-c2ccncc2)cs1)C1CCCN(S(=O)(=O)c2ccc(Cl)s2)C1 (stereo not drawn) | > 14.1 µg/mL
* CCn1ccnc1N1CCN(CC(=O)NCc2ccc(C)cc2)CC1 | > 12.4 µg/mL
* O=C(Nc1onc2c1CCCC2)c1cccc(Oc2ccccc2)c1 | > 10 µg/mL
* COc1ccc(Nc2nc(Nc3ccccc3OC)nc(N3CCOCC3)n2)cc1 | 2.08 µg/mL
* O=C(Nc1cc2ccccc2cc1NC(=O)c1ccc2c(c1)OCCO2)c1ccc2c(c1)OCCO2 | > 14.5 µg/mL

Can you give me IC50 for all of these, one by one?
1. CCN(CC)c1cc(C)nc(Nc2ccc(NC(=O)c3ccc(Br)o3)cc2)n1
2. CS(=O)(=O)N1CCCc2cc(NC(=O)c3cc4ccccc4oc3=O)ccc21
3. Cc1ccnc(Nc2ccc(NCCNC(=O)c3ccc(F)cc3Cl)nn2)c1
4. O=C(CCCS(=O)(=O)c1ccc(F)cc1)Nc1nc2c(s1)CSc1ccccc1-2
5. CC(C)(C)C(=O)N1CCc2ccc(NC(=O)Cc3cccs3)cc21
6. CCn1nc(C)cc1C(=O)N1CCN(c2nc3c(C)ccc(C)c3s2)CC1
7. CN1C(=O)C(C)(C)COc2ccc(NS(=O)(=O)c3ccccc3F)cc21

1: 2.91 µg/mL; 2: > 12 µg/mL; 3: > 12 µg/mL; 4: > 13.5 µg/mL; 5: > 10.3 µg/mL; 6: > 11.5 µg/mL; 7: > 11.4 µg/mL
